# System: VA-ES-BJ
# TEST_DESCRIPTION: relative viability vs DMSO control (72 h) (fraction); higher = more viable cells
# PROTOCOL_CONDITIONS: 0.00017 µM
OUTCOME_MEASURE: relative viability
Answers are plain numbers.

Would you mind telling me what relative viability value was observed for N#CC1(c2ccc(NC(=O)c3cccnc3NCc3ccncc3)cc2)CCCC1 [Apatinib] ?
1.04

Cool, now Cc1cccc(-c2nn3c(c2-c2ccnc4ccc(C(N)=O)cc24)CCC3)n1 [Galunisertib]
1.04

Cool, now C[C@H](Nc1ncnc2nc[nH]c12)c1cc2cccc(Cl)c2c(=O)n1-c1ccccc1 [Duvelisib]
1.09

Batch request: relative viability per item, same order as input.
1. CC(C)(O)CNc1nc(Nc2ccnc(C(F)(F)F)c2)nc(-c2cccc(C(F)(F)F)n2)n1 [Enasidenib]
2. O=C(Nc1nc2cccc(-c3ccc(CN4CCS(=O)(=O)CC4)cc3)n2n1)C1CC1 [Filgotinib]
3. O=c1sn(-c2cccc3ccccc23)c(=O)n1Cc1ccccc1 [Tideglusib]
4. COCCNc1cc(NC(=O)N2CCCc3cc(CN4CCN(C)CC4=O)c(C=O)nc32)ncc1C#N [Roblitinib]

1. 1.04
2. 1.05
3. 1.1
4. 1.03

Batch request: relative viability per item, same order as input.
1. Cn1cc(C2=C(c3cn(C4CCN(Cc5ccccn5)CC4)c4ccccc34)C(=O)NC2=O)c2ccccc21 [Enzastaurin]
2. C[C@]12O[C@H](C[C@]1(O)CO)n1c3ccccc3c3c4c(c5c6ccccc6n2c5c31)CNC4=O [Lestaurtinib]

1.08
1.06
